Would you mind telling me the reported self-cleavage kobs at 640 uM GlcN6P of each entry?
B1: glmS ribozyme (parent)
chain: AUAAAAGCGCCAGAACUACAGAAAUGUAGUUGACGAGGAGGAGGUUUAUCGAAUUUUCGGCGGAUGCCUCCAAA

Variants of: B1
Test: self-cleavage kobs at 640 uM GlcN6P; higher = faster cleavage; RNA array
Conditions: with glucosamine-6-phosphate
Variants at the floor of the assay were thinned out.

Take a look at these entries with their results.
• G13C G41A = < 1e-05 s⁻¹
• A33G U65C C71A = < 1e-05 s⁻¹
• G7U G9A G38U = < 1e-05 s⁻¹

Please state, for each entry, its recorded self-cleavage kobs at 640 uM GlcN6P.
1. A15U A52U G66C C71U
2. G7C U45A
3. A14C G38C
4. G32A G51U A52U G60C G62C
5. G13U A14U G35C U46A G51U U65A
6. A39C G40U G44A U55C U65G
7. G44U A48G C50G

Solution:
1: < 1e-05 s⁻¹; 2: < 1e-05 s⁻¹; 3: < 1e-05 s⁻¹; 4: < 1e-05 s⁻¹; 5: < 1e-05 s⁻¹; 6: < 1e-05 s⁻¹; 7: < 1e-05 s⁻¹

Value source: the supplement of paper PMC7125110
